measurementSetup: in 1,4-dioxane, 291.3 K

>  <compound>
O=c1[nH]cc(F)c(=O)[nH]1

>  <solubility (mole fraction)>
0.00123

$$$$

* * *

measurementSetup: in 1,4-dioxane, 329.8 K

>  <compound>
O=c1[nH]cc(F)c(=O)[nH]1

>  <solubility (mole fraction)>
0.00332

$$$$

* * *

measurementSetup: in isopropanol, 311.6 K

>  <compound>
O=c1[nH]cc(F)c(=O)[nH]1

>  <solubility (mole fraction)>
0.00217

$$$$

* * *

measurementSetup: in methanol, 328.8 K

>  <compound>
O=c1[nH]cc(F)c(=O)[nH]1

>  <solubility (mole fraction)>
0.00661

$$$$

* * *

measurementSetup: in acetonitrile, 332.3 K

>  <compound>
O=c1[nH]cc(F)c(=O)[nH]1

>  <solubility (mole fraction)>
0.00162

$$$$

* * *

measurementSetup: in acetonitrile, 329 K

>  <compound>
O=c1[nH]cc(F)c(=O)[nH]1

>  <solubility (mole fraction)>
0.00143

$$$$

* * *

measurementSetup: in ethanol, 306.2 K
recordedEndpoint: solubility (mole fraction)

>  <compound>
O=c1[nH]cc(F)c(=O)[nH]1

>  <observedMeasurement>
0.00206

$$$$

* * *

measurementSetup: in acetonitrile, 294.6 K

>  <compound>
O=c1[nH]cc(F)c(=O)[nH]1

>  <solubility (mole fraction)>
0.00053

$$$$

* * *

measurementSetup: in isopropanol, 318 K

>  <compound>
O=c1[nH]cc(F)c(=O)[nH]1

>  <solubility (mole fraction)>
0.00258

$$$$

* * *

measurementSetup: in 1,4-dioxane, 305.2 K
recordedEndpoint: solubility (mole fraction)

>  <compound>
O=c1[nH]cc(F)c(=O)[nH]1

>  <recordedEndpoint>
solubility (mole fraction)

>  <observedMeasurement>
0.00176

$$$$

* * *

measurementSetup: in n-propanol, 291.2 K

>  <compound>
O=c1[nH]cc(F)c(=O)[nH]1

>  <solubility (mole fraction)>
0.00098

$$$$

* * *

measurementSetup: in 1,4-dioxane, 313.9 K
recordedEndpoint: solubility (mole fraction)

>  <compound>
O=c1[nH]cc(F)c(=O)[nH]1

>  <observedMeasurement>
0.00225

$$$$

* * *

measurementSetup: in ethanol, 286.9 K

>  <compound>
O=c1[nH]cc(F)c(=O)[nH]1

>  <solubility (mole fraction)>
0.00124

$$$$

* * *

measurementSetup: in ethanol, 281.1 K

>  <compound>
O=c1[nH]cc(F)c(=O)[nH]1

>  <solubility (mole fraction)>
0.00099

$$$$

* * *

measurementSetup: in n-butanol, 287.8 K

>  <compound>
O=c1[nH]cc(F)c(=O)[nH]1

>  <solubility (mole fraction)>
0.00086

$$$$

* * *

measurementSetup: in isopropanol, 294.9 K

>  <compound>
O=c1[nH]cc(F)c(=O)[nH]1

>  <solubility (mole fraction)>
0.00119

$$$$

* * *

measurementSetup: in ethyl acetate, 330.6 K

>  <compound>
O=c1[nH]cc(F)c(=O)[nH]1

>  <solubility (mole fraction)>
0.00099

$$$$

* * *

measurementSetup: in methanol, 295.8 K
recordedEndpoint: solubility (mole fraction)

>  <compound>
O=c1[nH]cc(F)c(=O)[nH]1

>  <observedMeasurement>
0.00289

$$$$

* * *

measurementSetup: in acetone, 305.1 K
recordedEndpoint: solubility (mole fraction)

>  <compound>
O=c1[nH]cc(F)c(=O)[nH]1

>  <observedMeasurement>
0.00229

$$$$

* * *

measurementSetup: in water, 282.5 K

>  <compound>
O=c1[nH]cc(F)c(=O)[nH]1

>  <solubility (mole fraction)>
0.00093

$$$$

* * *

measurementSetup: in n-butanol, 299.5 K
recordedEndpoint: solubility (mole fraction)

>  <compound>
O=c1[nH]cc(F)c(=O)[nH]1

>  <observedMeasurement>
0.00103

$$$$

* * *

measurementSetup: in ethanol, 315.1 K

>  <compound>
O=c1[nH]cc(F)c(=O)[nH]1

>  <solubility (mole fraction)>
0.00267

$$$$

* * *

measurementSetup: in n-butanol, 331.5 K
recordedEndpoint: solubility (mole fraction)

>  <compound>
O=c1[nH]cc(F)c(=O)[nH]1

>  <observedMeasurement>
0.00313

$$$$

* * *

measurementSetup: in n-propanol, 326.2 K

>  <compound>
O=c1[nH]cc(F)c(=O)[nH]1

>  <solubility (mole fraction)>
0.00263

$$$$

* * *

measurementSetup: in methanol, 326 K
recordedEndpoint: solubility (mole fraction)

>  <compound>
O=c1[nH]cc(F)c(=O)[nH]1

>  <observedMeasurement>
0.00581

$$$$

* * *

measurementSetup: in isopropanol, 284.6 K

>  <compound>
O=c1[nH]cc(F)c(=O)[nH]1

>  <solubility (mole fraction)>
0.00089

$$$$

* * *

measurementSetup: in water, 304.4 K
recordedEndpoint: solubility (mole fraction)

>  <compound>
O=c1[nH]cc(F)c(=O)[nH]1

>  <recordedEndpoint>
solubility (mole fraction)

>  <observedMeasurement>
0.0021

$$$$

* * *

measurementSetup: in ethyl acetate, 300.6 K

>  <compound>
O=c1[nH]cc(F)c(=O)[nH]1

>  <solubility (mole fraction)>
0.00054

$$$$

* * *

measurementSetup: in ethanol, 323.7 K

>  <compound>
O=c1[nH]cc(F)c(=O)[nH]1

>  <solubility (mole fraction)>
0.00329

$$$$

* * *

measurementSetup: in THF, 279.6 K
recordedEndpoint: solubility (mole fraction)

>  <compound>
O=c1[nH]cc(F)c(=O)[nH]1

>  <observedMeasurement>
0.00246

$$$$

* * *

measurementSetup: in isopropanol, 316.2 K

>  <compound>
O=c1[nH]cc(F)c(=O)[nH]1

>  <solubility (mole fraction)>
0.00237

$$$$

* * *

measurementSetup: in acetone, 290.2 K
recordedEndpoint: solubility (mole fraction)

>  <compound>
O=c1[nH]cc(F)c(=O)[nH]1

>  <recordedEndpoint>
solubility (mole fraction)

>  <observedMeasurement>
0.00175

$$$$

* * *

measurementSetup: in n-propanol, 308.6 K

>  <compound>
O=c1[nH]cc(F)c(=O)[nH]1

>  <solubility (mole fraction)>
0.00149

$$$$

* * *

measurementSetup: in acetonitrile, 316 K

>  <compound>
O=c1[nH]cc(F)c(=O)[nH]1

>  <solubility (mole fraction)>
0.00102

$$$$

* * *

measurementSetup: in n-propanol, 280.8 K

>  <compound>
O=c1[nH]cc(F)c(=O)[nH]1

>  <solubility (mole fraction)>
0.00082

$$$$

* * *

measurementSetup: in n-butanol, 303.4 K

>  <compound>
O=c1[nH]cc(F)c(=O)[nH]1

>  <solubility (mole fraction)>
0.00121

$$$$

* * *

measurementSetup: in n-butanol, 327 K

>  <compound>
O=c1[nH]cc(F)c(=O)[nH]1

>  <solubility (mole fraction)>
0.00267

$$$$

* * *

measurementSetup: in n-butanol, 280.1 K

>  <compound>
O=c1[nH]cc(F)c(=O)[nH]1

>  <solubility (mole fraction)>
0.00058

$$$$

* * *

measurementSetup: in isopropanol, 286.8 K

>  <compound>
O=c1[nH]cc(F)c(=O)[nH]1

>  <solubility (mole fraction)>
0.00102

$$$$

* * *

measurementSetup: in ethyl acetate, 291.1 K
recordedEndpoint: solubility (mole fraction)

>  <compound>
O=c1[nH]cc(F)c(=O)[nH]1

>  <observedMeasurement>
0.00041

$$$$

* * *

measurementSetup: in water, 280.1 K
recordedEndpoint: solubility (mole fraction)

>  <compound>
O=c1[nH]cc(F)c(=O)[nH]1

>  <observedMeasurement>
0.00091

$$$$

* * *

measurementSetup: in THF, 314.6 K

>  <compound>
O=c1[nH]cc(F)c(=O)[nH]1

>  <solubility (mole fraction)>
0.00367

$$$$

* * *

measurementSetup: in methanol, 318.4 K
recordedEndpoint: solubility (mole fraction)

>  <compound>
O=c1[nH]cc(F)c(=O)[nH]1

>  <recordedEndpoint>
solubility (mole fraction)

>  <observedMeasurement>
0.00502

$$$$

* * *

measurementSetup: in methanol, 287.7 K

>  <compound>
O=c1[nH]cc(F)c(=O)[nH]1

>  <solubility (mole fraction)>
0.00216

$$$$

* * *

measurementSetup: in n-butanol, 283 K

>  <compound>
O=c1[nH]cc(F)c(=O)[nH]1

>  <solubility (mole fraction)>
0.00059

$$$$

* * *

measurementSetup: in 1,4-dioxane, 300.9 K

>  <compound>
O=c1[nH]cc(F)c(=O)[nH]1

>  <solubility (mole fraction)>
0.00158

$$$$

* * *

measurementSetup: in n-propanol, 324.3 K

>  <compound>
O=c1[nH]cc(F)c(=O)[nH]1

>  <solubility (mole fraction)>
0.00245

$$$$

* * *

measurementSetup: in acetonitrile, 290.3 K
recordedEndpoint: solubility (mole fraction)

>  <compound>
O=c1[nH]cc(F)c(=O)[nH]1

>  <observedMeasurement>
0.00046

$$$$

Hello, the source for this data is BigSolDB 2.1, in case you need it.
